// values below are reported pKi
biological target: recombinant human 5-HT3 receptor (Homo sapiens (Human), UniProt P46098); experiment: Affinity for 5-HT3 receptors through inhibition of [3H]GR65630 binding
Sequence (P46098 24-478): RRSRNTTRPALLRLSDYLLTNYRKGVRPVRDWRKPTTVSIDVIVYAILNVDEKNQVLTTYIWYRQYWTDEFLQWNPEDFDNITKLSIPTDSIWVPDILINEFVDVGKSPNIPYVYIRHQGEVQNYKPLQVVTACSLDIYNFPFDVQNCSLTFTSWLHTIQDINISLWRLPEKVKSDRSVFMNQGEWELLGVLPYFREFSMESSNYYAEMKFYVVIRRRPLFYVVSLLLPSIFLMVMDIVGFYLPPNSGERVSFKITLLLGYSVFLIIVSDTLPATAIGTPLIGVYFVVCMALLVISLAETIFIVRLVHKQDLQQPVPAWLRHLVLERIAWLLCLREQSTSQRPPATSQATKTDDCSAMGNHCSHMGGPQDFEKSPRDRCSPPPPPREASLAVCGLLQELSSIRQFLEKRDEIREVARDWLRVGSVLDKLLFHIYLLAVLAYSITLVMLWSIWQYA
pKi: −log10 of the molar value. Where a name gives a salt, the structure may show the parent alone.

compound: COc1cc(NC(=O)Nc2ccc3cc(C(=O)N[C@H]4CN5CCC4CC5)sc3c2)cc(OC)c1OC [Example 14, hydrochloride]
pKi: 5.16
//
compound: O=C(NCCc1ccccc1)Nc1ccc2cc(C(=O)N[C@H]3CN4CCC3CC4)sc2c1 [Example 5, hydrochloride]
pKi: 4.92

----------
target: α7 nAChR (Rattus norvegicus (Rat)); assay: Affinity for α7 nAChR by inhibition of [3H]-methyllycaconitine binding to rat brain membranes; conditions: [3H]-methyllycaconitine displacement, rat brain membranes; read-out: Ki
Counter-ions that a name gives are not always drawn.
quantity_kind: Ki (nM)

compound: COc1ccc(NC(=O)Nc2ccc3cc(C(=O)N[C@H]4CN5CCC4CC5)oc3c2)cc1 [Example 22, hydrochloride]
system_under_test: α7 nAChR (Rattus norvegicus (Rat))
reported_relation: <
value: 1

compound: COc1ccc(NC(=O)Nc2ccc3cc(C(=O)N[C@H]4CN5CCC4CC5)sc3c2)cc1 [Example 4, hydrochloride]
system_under_test: α7 nAChR (Rattus norvegicus (Rat))
reported_relation: =
value: 2.1

compound: O=C(NCCc1ccccc1)Nc1ccc2cc(C(=O)N[C@H]3CN4CCC3CC4)sc2c1 [Example 5, hydrochloride]
system_under_test: α7 nAChR (Rattus norvegicus (Rat))
reported_relation: =
value: 22

----------
molecular target: recombinant human 5-HT3 receptor (Homo sapiens (Human), UniProt P46098); assay: Affinity for 5-HT3 receptors through inhibition of [3H]GR65630 binding; conditions: [3H]GR65630 displacement, membranes from HEK293 cells expressing human 5-HT3 receptor; read-out: Ki
pKi: −log10 of the molar value. Structures can show the parent of a compound that is named as a salt.

molecule: COc1cccc(NC(=O)Nc2ccc3cc(C(=O)N[C@H]4CN5CCC4CC5)sc3c2)c1 [Example 16, hydrochloride]
pKi: 5.68
//
molecule: O=C(Nc1ccc2cc(C(=O)N[C@H]3CN4CCC3CC4)sc2c1)Nc1c(F)cccc1F [Example 11, hydrochloride]
pKi: 5.26
//
molecule: N#Cc1cccc(NC(=O)Nc2ccc3cc(C(=O)N[C@H]4CN5CCC4CC5)sc3c2)c1 [Example 6, hydrochloride]
pKi: 5.77
//
molecule: O=C(Nc1ccccc1)Nc1cccc2cc(C(=O)N[C@H]3CN4CCC3CC4)sc12 [Example 21, hydrochloride]
pKi: 5.80

----------
// values below are reported Ki
target: α7 nAChR (Rattus norvegicus (Rat), UniProt Q05941); test: Affinity for α7 nAChR by inhibition of [3H]-methyllycaconitine binding to rat brain membranes
Sequence (Q05941 23-502 limits assumed): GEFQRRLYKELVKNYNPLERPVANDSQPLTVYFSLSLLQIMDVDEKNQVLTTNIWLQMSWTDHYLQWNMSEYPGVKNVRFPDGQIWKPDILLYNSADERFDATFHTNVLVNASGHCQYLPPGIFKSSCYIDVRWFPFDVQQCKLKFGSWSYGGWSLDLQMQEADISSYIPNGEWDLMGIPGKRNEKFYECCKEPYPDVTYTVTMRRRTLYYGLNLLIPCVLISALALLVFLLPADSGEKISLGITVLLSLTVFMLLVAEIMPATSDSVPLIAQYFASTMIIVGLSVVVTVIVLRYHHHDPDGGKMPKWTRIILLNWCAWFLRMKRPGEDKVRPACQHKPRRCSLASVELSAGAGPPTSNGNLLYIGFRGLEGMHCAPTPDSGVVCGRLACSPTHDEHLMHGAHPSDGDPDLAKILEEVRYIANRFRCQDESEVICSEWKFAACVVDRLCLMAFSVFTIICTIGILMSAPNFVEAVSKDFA
Where a name gives a salt, the structure may show the parent alone.
quantity_kind: Ki (nM)

compound: O=C(Nc1ccc2cc(C(=O)N[C@H]3CN4CCC3CC4)sc2c1)Nc1c(F)cccc1F [Example 11, hydrochloride]
units_of_measure: nM
value: 0.4

compound: N#Cc1cccc(NC(=O)Nc2ccc3cc(C(=O)N[C@H]4CN5CCC4CC5)sc3c2)c1 [Example 6, hydrochloride]
units_of_measure: nM
value: 7.9

compound: COc1cccc(NC(=O)Nc2ccc3cc(C(=O)N[C@H]4CN5CCC4CC5)sc3c2)c1 [Example 16, hydrochloride]
units_of_measure: nM
value: 4.3

compound: O=C(Nc1ccccc1)Nc1cccc2cc(C(=O)N[C@H]3CN4CCC3CC4)sc12 [Example 21, hydrochloride]
units_of_measure: nM
value: 15
